These measurements were taken from patent US20260297087A1.

subject_of_test: ERK5 (activated catalytic domain) (Homo sapiens)
Construct: purchased CarnaBiosciences 04-146
Sequence (Q13164 55-347 limits assumed): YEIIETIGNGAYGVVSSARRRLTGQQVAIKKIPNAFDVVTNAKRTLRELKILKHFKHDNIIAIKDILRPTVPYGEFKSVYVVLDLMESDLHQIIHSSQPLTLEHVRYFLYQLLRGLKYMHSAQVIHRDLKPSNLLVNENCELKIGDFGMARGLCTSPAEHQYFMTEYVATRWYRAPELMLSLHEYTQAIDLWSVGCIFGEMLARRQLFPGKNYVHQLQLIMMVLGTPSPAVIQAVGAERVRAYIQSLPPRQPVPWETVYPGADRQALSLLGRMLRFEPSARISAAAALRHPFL
protocol_text: Cell-Free Assay of ERK5 Inhibition (Time-Resolved FRET, 4EBP1 peptide phosphorylation)
Type: biochemical
measurement_parameters: ERK5 catalytic domain 4 nM, 1 mM ATP, 1 μM biotinylated 4EBP1 peptide, 30 min at 37° C.; mean where repeated; read-out: Cell-free assay (IC50 in nM)
assay_readout: IC50 (nM)

Nc1cc(OC(F)(F)F)ccc1C(=O)N1CCC(n2c(=O)[nH]c3ncc(OC4CCOC4)cc32)CC1 (single isomer, unassigned; isomer 2) [Example 44]
310

[1] CO[C@H]1CC[C@H](c2cnc3[nH]c(=O)n(C4CCN(C(=O)c5ccc(OC(F)(F)F)cc5)CC4)c3c2)CC1 [Example 26]
[2] Nc1cc(S(F)(F)(F)(F)F)ccc1C(=O)N1CCC(n2c(=O)[nH]c3ncc(C4CCOCC4)cc32)C1 (racemic) [Example 49]
[3] Nc1cc(OC(F)(F)F)ccc1C(=O)N1CCC(n2c(=O)[nH]c3ncc(C45CCC(C4)C5)cc32)CC1 [Example 32]
[4] O=C(c1ccc(OC(F)(F)F)cc1)N1CCC(n2c(=O)[nH]c3ncc(CC4COC4)cc32)CC1 [Example 42]
Let's sort these by IC50, smallest first. Go ahead? # the answer lists labels in the order requested
1, 4, 2, 3
